The reported numbers originate from the NIST ThermoML archive (doi:10.1016/j.jct.2009.06.011).

Experiment: activity coefficient (dimensionless); of the first substance listed, at infinite dilution; xn = mol fraction of the nth substance listed
Settings: 368.15 K; 101 kPa; Liquid; Chromatography; x1 = 0
Reported activity coefficient is given for each of the following compounds.

{"compound": "C=CCCCCC [1-heptene] + CCCC[n+]1ccc(C)cc1.O=S(=O)([N-]S(=O)(=O)C(F)(F)F)C(F)(F)F", "activity coefficient": 7.76}
{"compound": "C#CCCCCCC [1-octyne] + CCCC[n+]1ccc(C)cc1.O=S(=O)([N-]S(=O)(=O)C(F)(F)F)C(F)(F)F", "activity coefficient": 4.33}
{"compound": "CC(C)=O [acetone] + CCCC[n+]1ccc(C)cc1.O=S(=O)([N-]S(=O)(=O)C(F)(F)F)C(F)(F)F", "activity coefficient": 0.451}
{"compound": "CCCCCC [hexane] + CCCC[n+]1ccc(C)cc1.O=S(=O)([N-]S(=O)(=O)C(F)(F)F)C(F)(F)F", "activity coefficient": 10.3}
{"compound": "CCc1ccccc1 [ethylbenzene] + CCCC[n+]1ccc(C)cc1.O=S(=O)([N-]S(=O)(=O)C(F)(F)F)C(F)(F)F", "activity coefficient": 1.56}
{"compound": "c1ccsc1 [thiophene] + CCCC[n+]1ccc(C)cc1.O=S(=O)([N-]S(=O)(=O)C(F)(F)F)C(F)(F)F", "activity coefficient": 0.694}
{"compound": "CCCCC [pentane] + CCCC[n+]1ccc(C)cc1.O=S(=O)([N-]S(=O)(=O)C(F)(F)F)C(F)(F)F", "activity coefficient": 8.47}
{"compound": "CCCCCCC [heptane] + CCCC[n+]1ccc(C)cc1.O=S(=O)([N-]S(=O)(=O)C(F)(F)F)C(F)(F)F", "activity coefficient": 13.2}
{"compound": "c1ccccc1 [benzene] + CCCC[n+]1ccc(C)cc1.O=S(=O)([N-]S(=O)(=O)C(F)(F)F)C(F)(F)F", "activity coefficient": 0.795}
{"compound": "C1CCCCC1 [cyclohexane] + CCCC[n+]1ccc(C)cc1.O=S(=O)([N-]S(=O)(=O)C(F)(F)F)C(F)(F)F", "activity coefficient": 5.94}
{"compound": "CCCCCCCC [octane] + CCCC[n+]1ccc(C)cc1.O=S(=O)([N-]S(=O)(=O)C(F)(F)F)C(F)(F)F", "activity coefficient": 17.2}
{"compound": "C=CCCCCCC [oct-1-ene] + CCCC[n+]1ccc(C)cc1.O=S(=O)([N-]S(=O)(=O)C(F)(F)F)C(F)(F)F", "activity coefficient": 10.1}
{"compound": "C=CCCCC [hex-1-ene] + CCCC[n+]1ccc(C)cc1.O=S(=O)([N-]S(=O)(=O)C(F)(F)F)C(F)(F)F", "activity coefficient": 5.82}
{"compound": "C1CCCC1 [cyclopentane] + CCCC[n+]1ccc(C)cc1.O=S(=O)([N-]S(=O)(=O)C(F)(F)F)C(F)(F)F", "activity coefficient": 4.6}
{"compound": "CCCOCCC [dipropyl ether] + CCCC[n+]1ccc(C)cc1.O=S(=O)([N-]S(=O)(=O)C(F)(F)F)C(F)(F)F", "activity coefficient": 4.31}

---

Assay: activity coefficient (dimensionless); of the first substance listed, at infinite dilution; xn = mol fraction of the nth substance listed
Details: 348.15 K; 101 kPa; Liquid; Chromatography; x1 = 0

{"molecule": "CCCCCCCC [octane] + CCCC[n+]1ccc(C)cc1.O=S(=O)([N-]S(=O)(=O)C(F)(F)F)C(F)(F)F", "activity coefficient": 19.3}
{"molecule": "Cc1cccc(C)c1 [1,3-dimethylbenzene] + CCCC[n+]1ccc(C)cc1.O=S(=O)([N-]S(=O)(=O)C(F)(F)F)C(F)(F)F", "activity coefficient": 1.45}
{"molecule": "C1CCCCCCC1 [cyclooctane] + CCCC[n+]1ccc(C)cc1.O=S(=O)([N-]S(=O)(=O)C(F)(F)F)C(F)(F)F", "activity coefficient": 9.81}
{"molecule": "Cc1ccc(C)cc1 [1,4-dimethylbenzene] + CCCC[n+]1ccc(C)cc1.O=S(=O)([N-]S(=O)(=O)C(F)(F)F)C(F)(F)F", "activity coefficient": 1.45}
{"molecule": "C1CCOC1 [tetrahydrofuran] + CCCC[n+]1ccc(C)cc1.O=S(=O)([N-]S(=O)(=O)C(F)(F)F)C(F)(F)F", "activity coefficient": 0.673}
{"molecule": "CC(C)=O [acetone] + CCCC[n+]1ccc(C)cc1.O=S(=O)([N-]S(=O)(=O)C(F)(F)F)C(F)(F)F", "activity coefficient": 0.438}
{"molecule": "Cc1ccccc1C [1,2-dimethylbenzene] + CCCC[n+]1ccc(C)cc1.O=S(=O)([N-]S(=O)(=O)C(F)(F)F)C(F)(F)F", "activity coefficient": 1.3}
{"molecule": "C=CCCCC [hex-1-ene] + CCCC[n+]1ccc(C)cc1.O=S(=O)([N-]S(=O)(=O)C(F)(F)F)C(F)(F)F", "activity coefficient": 6.17}
{"molecule": "C=CCCC [1-pentene] + CCCC[n+]1ccc(C)cc1.O=S(=O)([N-]S(=O)(=O)C(F)(F)F)C(F)(F)F", "activity coefficient": 4.93}
{"molecule": "CCc1ccccc1 [ethylbenzene] + CCCC[n+]1ccc(C)cc1.O=S(=O)([N-]S(=O)(=O)C(F)(F)F)C(F)(F)F", "activity coefficient": 1.52}
{"molecule": "c1ccsc1 [thiophene] + CCCC[n+]1ccc(C)cc1.O=S(=O)([N-]S(=O)(=O)C(F)(F)F)C(F)(F)F", "activity coefficient": 0.672}
{"molecule": "CCCCCCCCCC [decane] + CCCC[n+]1ccc(C)cc1.O=S(=O)([N-]S(=O)(=O)C(F)(F)F)C(F)(F)F", "activity coefficient": 34.6}
{"molecule": "CCCCO [butan-1-ol] + CCCC[n+]1ccc(C)cc1.O=S(=O)([N-]S(=O)(=O)C(F)(F)F)C(F)(F)F", "activity coefficient": 1.71}

---

Test: activity coefficient (dimensionless); of the first substance listed, at infinite dilution; xn = mol fraction of the nth substance listed
Settings: 308.15 K; 101 kPa; Liquid; Chromatography; x1 = 0
Reported activity coefficient is given for each of the following compounds.

{"compound": "C#CCCC [1-pentyne] + CCCC[n+]1ccc(C)cc1.O=S(=O)([N-]S(=O)(=O)C(F)(F)F)C(F)(F)F", "activity coefficient": 1.82}
{"compound": "C=CCCCCCC [oct-1-ene] + CCCC[n+]1ccc(C)cc1.O=S(=O)([N-]S(=O)(=O)C(F)(F)F)C(F)(F)F", "activity coefficient": 13}
{"compound": "COC(C)(C)C [2-methoxy-2-methylpropane] + CCCC[n+]1ccc(C)cc1.O=S(=O)([N-]S(=O)(=O)C(F)(F)F)C(F)(F)F", "activity coefficient": 2}
{"compound": "CO [methanol] + CCCC[n+]1ccc(C)cc1.O=S(=O)([N-]S(=O)(=O)C(F)(F)F)C(F)(F)F", "activity coefficient": 1.39}

---

Reported activity coefficient is given for each of the following molecules.
Test: activity coefficient (dimensionless); of the first substance listed, at infinite dilution; xn = mol fraction of the nth substance listed
Details: 298.15 K; 101 kPa; Liquid; Chromatography; x1 = 0

{"molecule": "C=CCCCCC [1-heptene] + CCCC[n+]1ccc(C)cc1.O=S(=O)([N-]S(=O)(=O)C(F)(F)F)C(F)(F)F", "activity coefficient": 9.97}
{"molecule": "C#CCCC [1-pentyne] + CCCC[n+]1ccc(C)cc1.O=S(=O)([N-]S(=O)(=O)C(F)(F)F)C(F)(F)F", "activity coefficient": 1.79}
{"molecule": "C#CCCCC [1-hexyne] + CCCC[n+]1ccc(C)cc1.O=S(=O)([N-]S(=O)(=O)C(F)(F)F)C(F)(F)F", "activity coefficient": 2.37}
{"molecule": "c1ccsc1 [thiophene] + CCCC[n+]1ccc(C)cc1.O=S(=O)([N-]S(=O)(=O)C(F)(F)F)C(F)(F)F", "activity coefficient": 0.609}
{"molecule": "CCCOCCC [dipropyl ether] + CCCC[n+]1ccc(C)cc1.O=S(=O)([N-]S(=O)(=O)C(F)(F)F)C(F)(F)F", "activity coefficient": 4.91}
{"molecule": "C=CCCCCCC [oct-1-ene] + CCCC[n+]1ccc(C)cc1.O=S(=O)([N-]S(=O)(=O)C(F)(F)F)C(F)(F)F", "activity coefficient": 13.8}
{"molecule": "CCCO [propan-1-ol] + CCCC[n+]1ccc(C)cc1.O=S(=O)([N-]S(=O)(=O)C(F)(F)F)C(F)(F)F", "activity coefficient": 2.28}
{"molecule": "CCCCCCCCCC [decane] + CCCC[n+]1ccc(C)cc1.O=S(=O)([N-]S(=O)(=O)C(F)(F)F)C(F)(F)F", "activity coefficient": 54.7}
{"molecule": "COC(C)(C)C [2-methoxy-2-methylpropane] + CCCC[n+]1ccc(C)cc1.O=S(=O)([N-]S(=O)(=O)C(F)(F)F)C(F)(F)F", "activity coefficient": 1.97}
{"molecule": "CCCCCC [hexane] + CCCC[n+]1ccc(C)cc1.O=S(=O)([N-]S(=O)(=O)C(F)(F)F)C(F)(F)F", "activity coefficient": 15.4}
{"molecule": "CCCCCCCCC [nonane] + CCCC[n+]1ccc(C)cc1.O=S(=O)([N-]S(=O)(=O)C(F)(F)F)C(F)(F)F", "activity coefficient": 38.9}
{"molecule": "CCO [ethanol] + CCCC[n+]1ccc(C)cc1.O=S(=O)([N-]S(=O)(=O)C(F)(F)F)C(F)(F)F", "activity coefficient": 1.91}
{"molecule": "C=CCCC [1-pentene] + CCCC[n+]1ccc(C)cc1.O=S(=O)([N-]S(=O)(=O)C(F)(F)F)C(F)(F)F", "activity coefficient": 5.81}
{"molecule": "CC(C)=O [acetone] + CCCC[n+]1ccc(C)cc1.O=S(=O)([N-]S(=O)(=O)C(F)(F)F)C(F)(F)F", "activity coefficient": 0.398}
